# ASSAY COMMENT: In vivo pharmacokinetic evaluation after i.v. and p.o. administration to rats
# Parameters: species or system rat
# TEST SETTINGS: rat, plasma, iv, 2 mg/Kg, Rat 2, IV; read-out: VdB (volume of distribution during the elimination phase)
METRIC: Vd (L/kg)
Dear colleague, please return just the value in L/kg, with no unit written.

Query: Given the entry `COC[C@H]1O[C@H](OCCc2ccccc2)[C@H](NC(=O)CCCN)[C@@H](OCc2ccc3ccccc3c2)[C@@H]1O` , report its measured Vd.
Reply: 3.69

* * *

# ASSAY COMMENT: In vivo pharmacokinetic evaluation after i.v. and p.o. administration to rats
# Set-up: species or system rat
# TEST SETTINGS: rat, plasma, po, 25 mg/Kg, Mean ± SD of two rats
METRIC: Cmax (µM)
Dear colleague, please return just the value in µM, with no unit written.

Query: Given the entry `COC[C@H]1O[C@H](OCCc2ccccc2)[C@H](NC(=O)CCCN)[C@@H](OCc2ccc3ccccc3c2)[C@@H]1O` , report its measured Cmax.
Reply: 4.95

* * *

# TARGET ENTITY: SSTR-2 (Homo sapiens, UniProt P30874)
# Construct: expressed in transfected cells
# Sequence (P30874 whole entry): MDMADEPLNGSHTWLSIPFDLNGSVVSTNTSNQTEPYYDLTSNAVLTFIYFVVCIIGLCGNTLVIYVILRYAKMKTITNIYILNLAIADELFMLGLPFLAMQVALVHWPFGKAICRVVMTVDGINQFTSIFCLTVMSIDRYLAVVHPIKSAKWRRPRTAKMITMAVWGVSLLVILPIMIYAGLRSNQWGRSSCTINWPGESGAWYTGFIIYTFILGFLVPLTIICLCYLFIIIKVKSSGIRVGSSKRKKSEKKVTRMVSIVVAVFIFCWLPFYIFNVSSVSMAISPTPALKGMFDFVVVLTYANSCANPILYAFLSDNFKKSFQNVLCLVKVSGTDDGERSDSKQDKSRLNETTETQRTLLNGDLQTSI
# ASSAY COMMENT: Radioligand binding screen against somatostatin subtype SSTR-2
# TEST SETTINGS: Table 8; shown where Ki could not be determined (NoModel); read-out: IC50 SSTR2 (in parentheses)
METRIC: IC50 (µM)
Dear colleague, please return just the value in µM, with no unit written.

Query: Form field: IC50 recorded for COC[C@H]1OC(OCc2ccc3ccccc3c2)[C@H](NC(=O)CCN)[C@H](OCc2ccccc2)[C@@H]1O (stereo partly shown) with SSTR-2 (Homo sapiens, UniProt P30874) (enter value)
Reply: 29.2

* * *

Provide the recorded pKi for the entries that follow.
# TARGET ENTITY: SSTR-1 (Homo sapiens)
# Sequence (P30872 whole entry, species assumed): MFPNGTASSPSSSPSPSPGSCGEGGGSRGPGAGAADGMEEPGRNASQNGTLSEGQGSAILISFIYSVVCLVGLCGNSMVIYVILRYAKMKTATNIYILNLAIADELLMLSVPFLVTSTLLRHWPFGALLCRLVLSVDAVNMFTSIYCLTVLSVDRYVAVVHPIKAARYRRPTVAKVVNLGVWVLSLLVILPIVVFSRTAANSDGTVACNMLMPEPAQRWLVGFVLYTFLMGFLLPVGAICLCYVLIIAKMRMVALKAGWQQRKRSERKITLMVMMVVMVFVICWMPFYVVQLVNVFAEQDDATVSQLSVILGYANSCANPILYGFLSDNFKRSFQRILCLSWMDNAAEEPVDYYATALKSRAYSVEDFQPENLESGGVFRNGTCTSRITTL
Kindly note that pKi refers to -log10 of the concentration in mol/L and answer with the value alone.

Query: Given the entry COC[C@H]1OC(OCc2ccc(Cl)cc2)[C@H](NC(=O)CCN)[C@H](OCc2ccc3ccccc3c2)[C@@H]1O (some centres unmarked) , report its measured pKi.
Reply: 5.43

Query: And then COC[C@H]1OC(OCCc2ccccc2)[C@H](NC(=O)CCN)[C@H](OCc2ccc3ccccc3c2)[C@@H]1O (some centres unmarked) , what is it?
Reply: 5.59

Query: And then `COC[C@H]1O[C@H](OCc2ccc3ccccc3c2)[C@H](NC(=O)CCN)[C@H](OCc2ccc3ccccc3c2)[C@@H]1O` , what is it?
Reply: 5.71

Query: And then COC[C@H]1OC(OCc2ccc(Cl)cc2)[C@H](NC(=O)CCCN=C(N)N)[C@H](OCc2ccc(Cl)cc2)[C@@H]1O (some centres unmarked) , what is it?
Reply: 5.64

Query: And then COC[C@H]1OC(OCc2ccc(Cl)cc2)[C@H](NC(=O)CCCN=C(N)N)[C@H](OCc2ccc3ccccc3c2)[C@@H]1O (some centres unmarked) , what is it?
Reply: 5.80

* * *

# ASSAY COMMENT: In vivo pharmacokinetic evaluation after i.v. and p.o. administration to rats
# Set-up: species or system rat
# TEST SETTINGS: rat, plasma, 25 mg/Kg; PO, mean of two rats; read-out: Tmax (converted)
METRIC: Tmax (min)
Dear colleague, please return just the value in min, with no unit written.

Query: Given the entry `COC[C@H]1O[C@H](OCCc2ccccc2)[C@H](NC(=O)CCCN)[C@@H](OCc2ccc3ccccc3c2)[C@@H]1O` , report its measured Tmax.
Reply: 20

* * *

# TARGET ENTITY: Human SST5 somatostatin receptor (SSTR5) (Homo sapiens, UniProt P35346)
# Construct: expressed in transfected cells; host or cells: HEK-293 EBNA
# Sequence (P35346 whole entry): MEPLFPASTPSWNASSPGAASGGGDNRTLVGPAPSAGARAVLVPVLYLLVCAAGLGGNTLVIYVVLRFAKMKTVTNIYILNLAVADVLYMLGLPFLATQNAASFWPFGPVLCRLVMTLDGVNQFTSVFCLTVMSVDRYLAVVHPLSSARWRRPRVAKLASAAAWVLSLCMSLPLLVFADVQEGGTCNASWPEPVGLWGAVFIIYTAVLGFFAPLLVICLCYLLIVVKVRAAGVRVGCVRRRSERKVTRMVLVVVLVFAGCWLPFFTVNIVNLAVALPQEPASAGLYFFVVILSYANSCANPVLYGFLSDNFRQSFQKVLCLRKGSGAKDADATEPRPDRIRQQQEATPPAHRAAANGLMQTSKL
# ASSAY COMMENT: Filter plate assay for SST5 receptor, displacement of [125I]SST-14
# Assay type: binding
# TEST SETTINGS: 10 uM
Provide the recorded SSTR5 Inhib 10 uM % (inhibition of binding of SST-14 to SSTR5) for the entries that follow.
Dear colleague, please return just the value in %, with no unit written.

Query: Given the entry CSC1O[C@H](COCc2ccc3ccccc3c2)[C@@H](O)[C@@H](OCc2ccc3ccccc3c2)[C@H]1NC(=O)CNC(=N)N (stereo partly drawn) [Compound 131] , report its measured SSTR5 Inhib 10 uM % (inhibition of binding of SST-14 to SSTR5).
Reply: 80

Query: And then CSC1O[C@H](COCc2ccccc2)[C@@H](O)[C@@H](OCc2ccc3ccccc3c2)[C@H]1NC(=O)CCN (stereo partly drawn) [Compound 109] , what is it?
Reply: 83

Query: And then COC[C@H]1OC(OCc2ccccc2)[C@H](NC(=O)CCCNC(=N)N)[C@@H](OCc2ccc(-c3ccccc3)cc2)[C@@H]1O (stereo partly drawn) [Compound 165] , what is it?
Reply: 73

* * *

# Test system: Human Umbilical Vein Endothelial Cells (HUVEC)
# ASSAY COMMENT: Endothelial cell proliferation assay (MTS)
# Format: cell-based
# TEST SETTINGS: 250 uM, 48 hrs
Field: label. Allowed values: criterion met (Percent cell growth at 250 µM < -60%) or criterion not met (Percent cell growth at 250 µM >= -60%).

Query: Hello, I'm reviewing records and need to know if Percent cell growth at 250 µM of COC[C@H]1OC(OCc2ccc3ccccc3c2)[C@H](NC(=O)CCN)[C@H](OCc2ccc(Cl)cc2)[C@@H]1O (stereo partly drawn) is below -60%. Could you check?
Reply: criterion met

Query: And then `CS[C@@H]1O[C@H](COCc2ccc(Cl)cc2)[C@@H](O)[C@@H](OCc2ccc3ccccc3c2)[C@H]1NC(=O)CCN` , what is it?
Reply: criterion met

Query: And then `COC[C@H]1O[C@@H](OCc2ccc3ccccc3c2)[C@H](NC(=O)CCN=C(N)N)[C@H](OCc2ccc3ccccc3c2)[C@@H]1O` , what is it?
Reply: criterion not met

Query: And then COC[C@H]1OC(OCCc2ccccc2)[C@H](NC(=O)CCN)[C@H](OCc2ccc3ccccc3c2)[C@@H]1O (stereo partly drawn) , what is it?
Reply: criterion not met

Query: And then `COC[C@H]1O[C@H](OCc2ccc3ccccc3c2)[C@H](NC(=O)CCCN)[C@@H](OCc2ccc(Cl)cc2)[C@@H]1O` , what is it?
Reply: criterion met

Query: And then `COC[C@H]1O[C@@H](OCc2ccc3ccccc3c2)[C@H](NC(=O)CCCN)[C@@H](OCc2ccc(Cl)cc2)[C@@H]1O` , what is it?
Reply: criterion met

Query: And then `COC[C@H]1O[C@H](OCCc2ccccc2)[C@H](NC(=O)CCCN)[C@@H](OCc2ccc3ccccc3c2)[C@@H]1O` , what is it?
Reply: criterion not met

Query: And then COC[C@H]1OC(OCc2ccc(Cl)cc2)[C@H](NC(=O)CCCN=C(N)N)[C@H](OCc2ccc(Cl)cc2)[C@@H]1O (stereo partly drawn) , what is it?
Reply: criterion met

Query: And then CO[C@H]1[C@H](O)[C@@H](COCc2ccc3ccccc3c2)OC(OCc2ccc(Cl)cc2)[C@@H]1NC(=O)C1CCCN(C(=N)N)C1 (stereo partly drawn) , what is it?
Reply: criterion met

Query: And then COC[C@H]1OC(OCc2ccc3ccccc3c2)[C@H](NC(=O)CCN)[C@H](OCc2ccccc2)[C@@H]1O (stereo partly drawn) , what is it?
Reply: criterion met

Query: And then COC[C@H]1OC(OCc2ccc(Cl)cc2)[C@H](NC(=O)CCN)[C@H](OCc2ccc3ccccc3c2)[C@@H]1O (stereo partly drawn) , what is it?
Reply: criterion not met

Query: And then COC[C@H]1OC(OCc2ccc(Cl)cc2)[C@H](NC(=O)CCCN=C(N)N)[C@H](OCc2ccc3ccccc3c2)[C@@H]1O (stereo partly drawn) , what is it?
Reply: criterion met

Query: And then COC[C@H]1OC(OCc2ccc3ccccc3c2)[C@H](NC(=O)CCCN)[C@@H](OCc2ccc3ccccc3c2)[C@@H]1O (stereo partly drawn) , what is it?
Reply: criterion not met

Query: And then `COC[C@H]1O[C@H](OCc2ccc3ccccc3c2)[C@H](NC(=O)CCN)[C@H](OCc2ccc3ccccc3c2)[C@@H]1O` , what is it?
Reply: criterion met

Query: And then `CS[C@@H]1O[C@H](COCc2ccc3ccccc3c2)[C@@H](O)[C@@H](OCc2ccc3ccccc3c2)[C@H]1NC(=O)CCN` , what is it?
Reply: criterion met

* * *

# TARGET ENTITY: Human SST5 somatostatin receptor (SSTR5) (Homo sapiens, UniProt P35346)
# Construct: expressed in transfected cells; host or cells: HEK-293 EBNA
# ASSAY COMMENT: Filter plate assay for SST5 receptor, displacement of [125I]SST-14
# Assay type: binding
# TEST SETTINGS: 10 uM
METRIC: SSTR5 Inhib 10 uM % (inhibition of binding of SST-14 to SSTR5) (%)
Dear colleague, please return just the value in %, with no unit written.

Query: Given the entry COC[C@H]1OC(OCc2ccc(-c3ccccc3)cc2)[C@H](NC(=O)CCCNC(=N)N)[C@@H](OCc2ccc(Cl)cc2)[C@@H]1O (stereo partly shown) [Compound 93] , report its measured SSTR5 Inhib 10 uM % (inhibition of binding of SST-14 to SSTR5).
Reply: 86

Query: And then CSC1O[C@H](COCc2ccccc2)[C@@H](O)[C@@H](OCc2ccc3ccccc3c2)[C@H]1NC(=O)CCNC(=N)N (stereo partly shown) [Compound 128] , what is it?
Reply: 80

Query: And then COC[C@H]1OC(OCc2ccc(Cl)cc2)[C@H](NC(=O)CCCN)[C@@H](OCc2ccc3ccccc3c2)[C@@H]1O (stereo partly shown) [Compound 19] , what is it?
Reply: 98

Query: And then COC1C(O)C(COCc2ccc(Cl)cc2)OC(OCCc2ccccc2)C1NC(=O)CCCN (stereo not shown) [Compound 141] , what is it?
Reply: 78
